tgt: T1, apical domain of cynomolgus CD71 (cynomolgus, UniProt A0A2K5X958 189-383)
T1 construct: domain: apical domain; also called Cyno apical domain
test-name: primary ELISA; further: test concentration or dose not given here
Listing of entries alongside the reported RLU.

# binder, RLU
measured = [
    ("CD71-binding FN3 domain of SEQ ID NO: 123 (designed binder) MSLPAPKNLVVSRVTEDSARLSWTAPDAAFDSFAIRYWELRATGEAIPLSVPGSERSYDLTGLKPGTEYHVAISGVKGGKSSYPLRASFTT", "5.2e+06 RLU"),
    ("CD71-binding FN3 domain of SEQ ID NO: 132 (designed binder) MSLPAPKNLVVSRVTEDSARLSWTAPDAAFDSFEIGYFENLYLGEAIVLTVPGSERSYDLTGLKPGTEYWVQIGGVKGVNWSAPLSAIFTT", "5.15e+06 RLU"),
]
